molecular target: Serine/threonine-protein kinase 16 (Homo sapiens)
Sequence (O75716 whole entry): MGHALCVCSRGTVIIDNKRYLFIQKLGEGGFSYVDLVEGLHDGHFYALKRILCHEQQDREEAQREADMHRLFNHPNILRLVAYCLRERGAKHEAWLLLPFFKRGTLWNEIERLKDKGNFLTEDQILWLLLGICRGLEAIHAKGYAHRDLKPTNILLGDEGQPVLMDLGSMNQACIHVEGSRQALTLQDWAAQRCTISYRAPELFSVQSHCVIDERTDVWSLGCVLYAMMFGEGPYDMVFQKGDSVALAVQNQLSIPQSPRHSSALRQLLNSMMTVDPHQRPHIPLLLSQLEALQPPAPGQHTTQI
QUANTITY NAME: pIC50
Scale note: pIC50 = -log10(concentration in M).

Incoming: Param readout= pIC50; system= Serine/threonine-protein kinase 16 (Homo sapiens); entry= CN1C(=O)[C@@H](N2CCc3cn(CC4CCS(=O)(=O)CC4)nc3C2=O)COc2ccccc21 [TP-030n] ; returns value.
Outgoing: 6.00

----------
Target: Ephrin type-A receptor 6 (Homo sapiens)
Sequence (Q9UF33 whole entry): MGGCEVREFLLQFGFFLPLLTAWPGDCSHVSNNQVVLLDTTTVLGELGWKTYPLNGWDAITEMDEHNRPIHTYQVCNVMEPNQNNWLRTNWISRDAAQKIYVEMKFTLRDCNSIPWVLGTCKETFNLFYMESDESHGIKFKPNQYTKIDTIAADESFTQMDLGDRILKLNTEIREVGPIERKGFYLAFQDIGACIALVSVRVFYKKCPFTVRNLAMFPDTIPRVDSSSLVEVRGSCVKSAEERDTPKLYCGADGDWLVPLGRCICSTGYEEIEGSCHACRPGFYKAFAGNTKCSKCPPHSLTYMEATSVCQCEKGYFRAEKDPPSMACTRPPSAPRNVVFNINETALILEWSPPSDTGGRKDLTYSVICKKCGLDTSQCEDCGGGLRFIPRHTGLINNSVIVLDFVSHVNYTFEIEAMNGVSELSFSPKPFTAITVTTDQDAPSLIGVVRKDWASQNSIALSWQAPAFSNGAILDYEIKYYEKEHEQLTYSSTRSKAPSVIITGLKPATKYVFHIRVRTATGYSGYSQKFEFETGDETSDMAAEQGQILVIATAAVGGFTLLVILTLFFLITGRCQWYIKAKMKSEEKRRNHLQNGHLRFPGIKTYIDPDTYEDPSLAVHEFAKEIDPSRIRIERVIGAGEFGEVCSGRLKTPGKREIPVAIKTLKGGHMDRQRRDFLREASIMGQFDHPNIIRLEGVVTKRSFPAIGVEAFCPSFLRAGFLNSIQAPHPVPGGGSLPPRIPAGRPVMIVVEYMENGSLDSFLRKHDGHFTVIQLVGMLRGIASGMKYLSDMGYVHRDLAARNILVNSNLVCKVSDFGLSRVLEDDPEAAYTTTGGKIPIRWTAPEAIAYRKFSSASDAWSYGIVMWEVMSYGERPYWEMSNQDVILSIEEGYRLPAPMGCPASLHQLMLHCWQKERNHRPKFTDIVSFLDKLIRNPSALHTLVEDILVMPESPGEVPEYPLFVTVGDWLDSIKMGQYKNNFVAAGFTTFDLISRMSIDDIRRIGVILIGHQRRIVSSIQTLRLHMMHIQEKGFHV
Recorded IC50 by entry
// note: answer is a bare numeric in nM

| MOLECULE | TESTED TARGET | IC50 / nM |
| --- | --- | --- |
| CN1C(=O)[C@@H](N2CCc3cn(CC4CCS(=O)(=O)CC4)nc3C2=O)COc2ccccc21 [TP-030n] | Ephrin type-A receptor 6 (Homo sapiens) | 1000 |

Incoming: Param readout= IC50; system= Ephrin type-A receptor 6 (Homo sapiens); entry= CN1C(=O)[C@@H](N2CCc3cn(Cc4ccccc4)nc3C2=O)COc2ccccc21 [TP-030-1] ; returns value.
Outgoing: 1000
